The entries below come with measured inhibition at 5 µM values attached.
Target: HSF-PLA2 (extracellular PLA2 obtained from human synovial fluid) (Homo sapiens, UniProt P14555)
Construct: extracellular enzyme obtained from human synovial fluid; from tissue; host or cells: human synovial fluid (pooled)
Sequence (P14555 21-144): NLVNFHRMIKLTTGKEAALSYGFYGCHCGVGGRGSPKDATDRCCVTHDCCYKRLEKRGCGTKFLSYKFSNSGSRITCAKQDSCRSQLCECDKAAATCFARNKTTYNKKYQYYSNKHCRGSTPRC
Assay: Assay for inhibition of HSF-PLA2 in vitro
Assay type: biochemical
Conditions: 5 μM test compound; read-out: % Inhib of HSF-PLA2
Quantity kind: inhibition at 5 µM (%)

> print(dat)
                              smiles.string       quantity.kind  units.label  endpoint.result
1  CCCCCCCCCCCCCCCCCCOc1cc(OCCOc2ccc3ccccc3c2)cc(C(=O)N(CC(=O)O)CC(=O)O)c1  inhibition at 5 µM            %              -16
2  CCCCCCCCCCCCCCCCCCOc1ccc(OCc2ccccc2)c(C(=O)N(CC(=O)O)CC(=O)O)c1  inhibition at 5 µM            %               42
3  CCCCCCCCCCCCCCCCCCOc1cccc(C(=O)C(=O)N(CC(=O)O)CC(=O)O)c1  inhibition at 5 µM            %               57
4  CCCCCCCCCCCCCCCCCCOc1cc(N)cc(C(=O)N(CC(=O)O)CC(=O)O)c1  inhibition at 5 µM            %               34
